Biological target: T1, Unprocessed hMPV PreF trimer (human metapneumovirus, strain B2)
T1 construct: also called Unprocessed hMPV WT PreF trimer; unprocessed hMPV PreF trimeric antigen
Assay: BLI, mAb on anti-human Fc sensor
metric_name: Octet binding response
A complete answer gives the number and then names the unit.

Parameter requested: Octet binding response. Apply to each item below.
1. M2D01 (antibody, V domains shown, IgG) VH: QVQLQESGPGVVKPSETLSLTCTVSRGAITDYHLNWIRQPPGKGLEWIGYISSSGSTNYNPSLKSRVTISQVMSGTQFSLKLTSMSAADTALYYCASSSGRYWGGALDLWGQGTQVIVSS VL: DIVMTQSPDSLAVPLGERATINCKSSQSLLYTSNNKNSLAWYQQKPGQPPKLLLFWASTREFRVPDRFSGSGSGTDFTLTISSLQAEDVAVYYCQQYYTAPYTFGPGTKLEIK
2. M7D5 (antibody, V domains shown, IgG) VH: QVQLVQSGAEVKKPGSSVKVSCKASGGTLSNYAISWVRQAPGQGLEWMGGIIPIFGTAMYAHNFQDRVTFTADESTNTVYMAVSRLTSDDTAVYYCAQDRTVTKYAHGLDVWGQGTTVTVSS VL: DIQMTQSPSSLSASVGDRITITCPASQSLLTYLNWYQQKPGKAPKLLIYSASELPSGVPSRFSGSGSGTEFTLTVTGLQPDDFATYYCQQSHTTPLTFGGGTKVEIKR
3. M2B12 (antibody, V domains shown, IgG) VH: QVQLVESGGGVVQPGRSLRLSCEASGFTFSSSAMHWVRQAPGKGLEWVAIISYHGTNKDYSDSVRGRFTISRDNSKNTLYLQMNGLRGDDTAVYYCAKEAAVSGNFDSWGQGTMVTVSS VL: QLVLTQSPSASASLGASVKLTCTLISGPSNYAIAWHRQQPQKGPRYLMKVNSDGSHTKGDGIPDRFSGSSSGTERYLIISNLQSEDEADYYCQTWGSGIYVFGPGTKVTVL

[out]
["0.33 nm", "0.296 nm", "0.378 nm"]
